In this section we review reported polymerase ribozyme fitness (log ratio) values for a set of variants.
B1: TPR 5TU (parent)
chain: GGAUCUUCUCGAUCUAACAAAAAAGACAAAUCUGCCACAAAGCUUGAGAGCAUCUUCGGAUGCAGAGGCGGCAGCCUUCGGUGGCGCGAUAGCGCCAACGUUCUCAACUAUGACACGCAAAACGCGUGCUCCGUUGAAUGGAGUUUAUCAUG

Variants of: B1
Assay: polymerase ribozyme fitness, log enrichment relative to wild type (log ratio); higher = more active; in vitro selection for triplet polymerase activity
Variants at the floor of the assay were thinned out.
Answer with a number only.

These recorded examples may help you get a feel for the data.
> print(dat)
                  variant  data.value
1  C35U G117A U144G A147C      -0.649
2             C114U U151G       -4.08
3               A28U C95A       -3.41
4               A52C G83C       -2.29
5         G48C U53C G136U       -3.16

response.value for G117U U135C (field: polymerase ribozyme fitness (log ratio)) = -2.36

response.value for G11C U33G C38U A47C A49C G92A A97G U111G C118U G133U (field: polymerase ribozyme fitness (log ratio)) = -4.17

response.value for C51U G58A G92C G136A U148C (field: polymerase ribozyme fitness (log ratio)) = -3.3

response.value for A26C A137G U144A (field: polymerase ribozyme fitness (log ratio)) = -4.13

response.value for G84U C116A (field: polymerase ribozyme fitness (log ratio)) = -0.432

response.value for A52C C132U (field: polymerase ribozyme fitness (log ratio)) = -2.24

response.value for C125A U146G (field: polymerase ribozyme fitness (log ratio)) = -0.126

response.value for G59C G94C (field: polymerase ribozyme fitness (log ratio)) = -0.253

response.value for A49G C51A G94A G124U (field: polymerase ribozyme fitness (log ratio)) = -3.32

This collection of values is drawn from the RNAGym collection of RNA variant scans (doi:10.1073/pnas.2313332121).
